Data provenance: patent US12497393B2

- Test system: Escherichia coli
- procedure-summary: Antibacterial activity MIC assay (two-fold dilution agar plating)
- Assay type: cell-based
- experimental-parameters: Escherichia coli, Escherichia coli 13-43, mcr-1(+); read-out: Minimal Inhibitory Concentration (MIC)
Kindly apply the following: 1 if MIC is less than 0.2 µg/mL, -1 in every other case.

Is the reported MIC for CC1(C)[C@H](NC(=O)/C(=N\OC2(C(=O)O)CCC2)c2csc(N)n2)C(=O)N1OS(=O)(=O)O strictly below 0.2 µg/mL? 1

Is the reported MIC for C[C@H]1[C@H](NC(=O)/C(=N\OC(C)(C)C(=O)O)c2csc(N)n2)C(=O)N1S(=O)(=O)O [AZN, aztreonam, reference compound] strictly below 0.2 µg/mL? -1

Is the reported MIC for C[C@H]1COc2c(N3CCN(C)CC3)c(F)cc3c(=O)c(C(=O)O)cn1c23 [Levofloxacin, levofloxacin, reference compound] strictly below 0.2 µg/mL? -1

Is the reported MIC for CC(C)[C@H](O/N=C(\C(=O)N[C@@H]1C(=O)N(OS(=O)(=O)O)C1(C)C)c1csc(N)n1)C(=O)O strictly below 0.2 µg/mL? -1

Is the reported MIC for CC1(C)[C@H](NC(=O)/C(=N\OC2(C(=O)O)CCCC2)c2csc(N)n2)C(=O)N1OS(=O)(=O)O strictly below 0.2 µg/mL? -1

Is the reported MIC for CC1(C)[C@H](NC(=O)/C(=N\OC2(C(=O)O)CC2)c2csc(N)n2)C(=O)N1OS(=O)(=O)O strictly below 0.2 µg/mL? 1

Is the reported MIC for CC(C)[C@@H](O/N=C(\C(=O)N[C@@H]1C(=O)N(OS(=O)(=O)O)C1(C)C)c1csc(N)n1)C(=O)O strictly below 0.2 µg/mL? -1

Is the reported MIC for CC1(C)[C@H](NC(=O)/C(=N\OC2(C(=O)O)CCCCC2)c2csc(N)n2)C(=O)N1OS(=O)(=O)O strictly below 0.2 µg/mL? -1

====

I'd appreciate it if you could supply Minimal Inhibitory Concentration (MIC) values for the items below.
- Test system: Proteus vulgaris
- procedure-summary: Antibacterial activity MIC assay (two-fold dilution agar plating)
- Type: cell-based
- experimental-parameters: Proteus vulgaris ATCC 29905
Where a SMILES comes first, the peptide text is derived from it. Bridges are numbered along the chain shown (N, C = ends). [ ]: non-standard residue; d: D form. The star is where a group is joined. Heptanoyl(6-Me) = CC(C)CCCCC(=O)*; Dab = NCC[C@H](N)C(=O)O

Minimal Inhibitory Concentration (MIC) reading for CC(C)CCCCC(=O)N[C@@H](CCN)C(=O)N[C@H](C(=O)N[C@@H](CCN)C(=O)N[C@H]1CCNC(=O)[C@H]([C@@H](C)O)NC(=O)[C@H](CCN)NC(=O)[C@H](CCN)NC(=O)[C@H](CC(C)C)NC(=O)[C@@H](CC(C)C)NC(=O)[C@H](CCN)NC1=O)[C@@H](C)O [Colistin B, colistin B, reference compound] ({Heptanoyl(6-Me)}-[Dab]T[Dab][Dab][Dab][dL]L[Dab][Dab]T; lactam 4-C) : >64 µg/mL

Minimal Inhibitory Concentration (MIC) reading for CC1(C)[C@H](NC(=O)/C(=N\OC2(C(=O)O)CC2)c2nsc(N)n2)C(=O)N1OS(=O)(=O)O : ≤0.03 µg/mL

Minimal Inhibitory Concentration (MIC) reading for C#CCON=C(C(=O)NC1C(=O)N(OS(=O)(=O)O)C1(C)C)c1csc(N)n1 (stereo not shown) : ≤0.03 µg/mL

Minimal Inhibitory Concentration (MIC) reading for C=CCON=C(C(=O)NC1C(=O)N(OS(=O)(=O)O)C1(C)C)c1csc(N)n1 (stereo not shown) : ≤0.03 µg/mL
